# System: IGROV1 ovarian
# EXPERIMENT: NCI-60 one-dose screen, 48 h (100 = growth as untreated, 0 = no growth, -100 = all killed)
# CONDITION PARAMETERS: 10 µM unless noted
About 83,000 compounds went through this panel and 20% of them were active in at least one assay; those are over-represented in the sample as a whole. Active and inactive are the calls of the source. How the source made its calls: active means growth percent below 10; inactive means the rest.
Consider the following compounds and their measured growth readings.

// below: answered compounds
# COMPOUND, growth
measured = [
    ("Cc1ccc(-c2cc(-c3ccc(C)cc3)nc(N3CCN(CCNc4ccnc5cc(Cl)ccc45)CC3)n2)cc1", "5.07% (active)"),
    ("Cc1cc(N2CCCCCC2)nc(N2CCN(CC(=O)Nc3ccc4c(ccn4Cc4ccccc4)c3)CC2)n1", "49.9% (inactive)"),
    ("O=C(Nc1ccc(Cl)c(C(F)(F)F)c1)Nc1ccc(-c2cccnc2)cc1N1CCC(CO)CC1", "61.4% (inactive)"),
]

Entry O=C1CC(c2ccc3c(c2)OCO3)Nc2ccccc21 (configuration not stated) — recorded growth = 53.5% (inactive)

Entry Cc1ccc(-n2nc3n(/c2=N\C(=O)NS(=O)(=O)c2ccc(C)cc2)CCN3C2=NCCN2)cc1 — recorded growth = 104% (inactive)

Entry COc1ccc2c(c1)C(C)Cc1c(ncnc1-n1cnc3ccccc31)N2C (configuration not stated) — recorded growth = 50.7% (inactive)

Entry CCOC(=O)CCC[P+](c1ccccc1)(c1ccccc1)c1ccccc1 — recorded growth = 65.8% (inactive)
